assay-protocol: Food effect cross-over study, 200 mg (25 mg tablets), healthy volunteers: plasma pharmacokinetics
Type: in vivo, human
conditions-used: human, plasma, oral, fed state, read-out: Cmax of mean plasma concentrations
property-label: Cmax (ng/mL)
Your answer is read as ng/mL, so omit the unit and give the number.

Ask: Please report the measured Cmax for Cn1cc(S(=O)(=O)[C@@](C)(F)C2CCN(C(=O)Nc3ccon3)CC2)c(C(F)F)n1
Result: 3200

---

assay-protocol: Single ascending oral dose study in healthy volunteers: plasma pharmacokinetics
Format: in vivo, human
conditions-used: human, plasma, oral, 100 mg; read-out: Mean Residence Time, Mean
property-label: MRT (h)
Your answer is read as h, so omit the unit and give the number.

Ask: Please report the measured MRT for Cn1cc(S(=O)(=O)[C@@](C)(F)C2CCN(C(=O)Nc3ccon3)CC2)c(C(F)F)n1 [Compound I]
Result: 19.5

---

assay-protocol: Single ascending oral dose study in healthy volunteers: plasma pharmacokinetics
Format: in vivo, human
conditions-used: human, plasma, oral, 10 mg; read-out: Tmax, Median
property-label: Tmax (h)
Your answer is read as h, so omit the unit and give the number.

Ask: Please report the measured Tmax for Cn1cc(S(=O)(=O)[C@@](C)(F)C2CCN(C(=O)Nc3ccon3)CC2)c(C(F)F)n1
Result: 5

---

assay-protocol: Single ascending oral dose study in healthy volunteers: plasma pharmacokinetics
Assay type: in vivo, human
conditions-used: human, plasma, oral, 50 mg, 12 Hours Postdose; 50 mg; read-out: Plasma concentration, Geometric Mean
property-label: concentration at 12 h (ng/mL)
Your answer is read as ng/mL, so omit the unit and give the number.

Ask: Please report the measured concentration at 12 h for Cn1cc(S(=O)(=O)[C@@](C)(F)C2CCN(C(=O)Nc3ccon3)CC2)c(C(F)F)n1
Result: 317

---

assay-protocol: Food effect cross-over study, 200 mg (25 mg tablets), healthy volunteers: plasma pharmacokinetics
Type: in vivo, human
conditions-used: human, plasma, oral, fed state, read-out: Cmax, Mean (SD)
property-label: Cmax (ng/mL)
Your answer is read as ng/mL, so omit the unit and give the number.

Ask: Please report the measured Cmax for Cn1cc(S(=O)(=O)[C@@](C)(F)C2CCN(C(=O)Nc3ccon3)CC2)c(C(F)F)n1
Result: 3680

---

assay-protocol: HFrEF study Part 1 (SAD Cohorts 1 and 2): plasma pharmacokinetics
Assay type: in vivo, human
conditions-used: human, plasma, oral; SAD Cohort 2, 500 mg split dose (n = 4); read-out: AUC0-∞
property-label: AUC(0-inf) (µg·h/mL)
Your answer is read as µg·h/mL, so omit the unit and give the number.

Ask: Please report the measured AUC(0-inf) for Cn1cc(S(=O)(=O)[C@@](C)(F)C2CCN(C(=O)Nc3ccon3)CC2)c(C(F)F)n1
Result: 231

---

assay-protocol: Food effect cross-over study, 200 mg (25 mg tablets), healthy volunteers: plasma pharmacokinetics
Format: in vivo, human
conditions-used: human, plasma, oral, subjects who completed both fasted and fed periods (N = 9), read-out: AUClast, Fed LSGM
property-label: AUC(0-t)
Show the value, then the unit it is measured in.

Ask: Please report the measured AUC(0-t) for Cn1cc(S(=O)(=O)[C@@](C)(F)C2CCN(C(=O)Nc3ccon3)CC2)c(C(F)F)n1
Result: 90500 ng·h/mL

---

assay-protocol: Single ascending oral dose study in healthy volunteers: plasma pharmacokinetics
Format: in vivo, human
conditions-used: human, plasma, oral, 350 mg + 525 mg; read-out: Cmax, Median
property-label: Cmax (ng/mL)
Your answer is read as ng/mL, so omit the unit and give the number.

Ask: Please report the measured Cmax for Cn1cc(S(=O)(=O)[C@@](C)(F)C2CCN(C(=O)Nc3ccon3)CC2)c(C(F)F)n1
Result: 2500
